assay: binders of probe aHhip on microarray, primary screen, stem cell growth factor project, biochemical, small-molecule microarray, fluorescence 635/667 (AID 1087); conditions: higher = more signal;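 further: score merges spot fluorescence at 667nm with spot signal to noise ratio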
Criterion: composite z-score meeting or surpassing -0.06. Met: yes (1). Not met: no (0).

Textbook exercise: given the entry C=CC[C@@]1(C(=O)NCCCOC)N=C(c2ccc(OCCCO)cc2)O[C@@H]1c1ccccc1N=[N+]=[N-] , state whether its composite z-score is greater than or equal to -0.06.
no (0)

Textbook exercise: given the entry C=CCN1C(=O)[C@]2(CCC(=O)OC(C)(C)C)N=C(c3ccc(OCCCO)cc3)O[C@@H]2c2ccccc21 , state whether its composite z-score is greater than or equal to -0.06.
no (0)

Textbook exercise: given the entry O=C1NC(=O)C2C1C=CC(C(O)c1ccco1)N2Nc1ccc(Cl)cc1Cl (stereo not given) , state whether its composite z-score is greater than or equal to -0.06.
no (0)

* * *

assay: optical density change of DRC41 E. coli – strain DRC41, OD650, 24 h, E. coli filamentation project, primary screen (AID 1093);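 further: MC1000 strain lacking acrAB efflux and sulA so SOS filamentation is blocked; test concentration not given here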; conditions: E. coli DRC41 growth, higher = more signal, called active from +8 up or from −8 down
Observed Property: z-score
Reply briefly: the number, and no unit.

Use the examples below as a reference point.
COc1ccc(C#Cc2ccc3c(c2)[C@]2(C(=O)N3)[C@H](C(=O)O)[C@H]3C(=O)O[C@H](c4ccccc4)[C@H](c4ccccc4)N3[C@@H]2c2ccc(O)cc2)cc1 ... 0.781
CCCC#C[Si](O[C@H](CC)c1cn([C@H](C)c2ccccc2)nn1)(C(C)C)C(C)C ... 2.37
COC(=O)C1(CC(C)C)C=C2C(=C(c3ccccc3)C(=O)C2C)CN1 (stereo unspecified) ... -0.326
CC(c1ccccc1)C(O)C1C=CC2C(=O)N(C)C(=O)C2N1Nc1ccccc1 (stereo unspecified) ... -0.689

Give the measured z-score of COc1ccc(CCNC(=O)[C@@]2(c3ccc([N+](=O)[O-])cc3)CC(=O)N(C3CCCCC3)[C@@H]2c2ccc(CO)cc2)cc1 .
1.3

Give the measured z-score of CCCC1(C(=O)OC)C=C2C(=C(C)C(=O)C2C)CN1 (stereo unspecified) .
-0.827

Give the measured z-score of C=C(/C(=C/C[C@H](OC(C)=O)c1ccc(CO)o1)c1cnc2ccccc2c1)C(C)C .
0.243

Give the measured z-score of CC(CO)N1C(=O)[C@@H]2[C@H]3C(=O)OCC=C[C@H]3OC23C=CCN(Cn2nnc4ccccc42)C(=O)[C@@H]13 (stereo partly specified) .
-0.333

Give the measured z-score of Oc1ccc2cc[n+](Cc3cc4c(cc3Br)OCO4)cc2c1 .
-0.603

Give the measured z-score of CS(=O)(=O)CCOC(=O)C1=CC(CCCO)=CC(c2ccc(CN3CCCC3)cc2)N(Cc2sc3ccccc3c2Cl)C=C1C(=O)OCCS(C)(=O)=O (stereo unspecified) .
-0.853

Give the measured z-score of CCOC(=O)C[C@H]1[C@H](OC(=O)c2cc3ccccc3oc2=O)[C@@H](NC(=O)c2ccccc2)c2cc(OCCCO)ccc2N1C(=O)c1ccccc1 .
-0.12

* * *

test system: Chordin-like protein 2 (CHRDL2); test: compounds binding chordin-like 2 – biochemical, small-molecule microarray, 635 nm fluorescence, primary screen (AID 1126); conditions: fluorescence 635 nm, higher = more signal;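 further: printed compound slides probed with Chrdl2 protein at 4 µg/mL for 1 h at 4 C; score merges 667 nm emission intensity with signal to noise over three replicate slides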
Criterion: composite z-score meeting or surpassing 0.03. Met: y. Not met: n.

Below, 3 compounds whose answers are already recorded.
CC[C@@H]1C=C(C(=O)O)[C@H](c2ccccc2)N1S(=O)(=O)c1ccc(C)cc1 ... n
COc1ccc([Si](C)(C)[C@H]2[C@H](CC(=O)N3Cc4ccccc4C[C@H]3CO)O[C@@]3(C(=O)N(Cc4ccc(N5CCOC5=O)cc4)c4ccccc43)[C@@H]2C)cc1 ... y
C=C(C(=O)CC[C@H](OC(=O)c1ccccc1-c1ccccc1C(=O)O)c1cccc(OCCO)c1)C(C)C ... n

Textbook exercise: given the entry CCCCN1CC=CC23O[C@@H]4/C=C\CCC(C)OC(=O)C4[C@H]2C(=O)N(CCCO)[C@@H]3C1=O (some centres undefined) , state whether its composite z-score is greater than or equal to 0.03.
n

Textbook exercise: given the entry COc1ccc([Si](C)(C)[C@@H]2[C@@H](CCO)O[C@]3(C(=O)N(Cc4ccccc4)c4ccc(N5CCOC5=O)cc43)[C@H]2C)cc1 , state whether its composite z-score is greater than or equal to 0.03.
y

Textbook exercise: given the entry NC(=O)[C@H]1[C@@H]2C(=O)O[C@@H](c3ccccc3)[C@@H](c3ccccc3)N2[C@@H](c2ccc(OCCO)cc2)[C@]12C(=O)Nc1ccc(C#CCCO)cc12 , state whether its composite z-score is greater than or equal to 0.03.
n

Textbook exercise: given the entry COCCOC(=O)N1C(=O)[C@@]2(c3cc(C#CCNC(N)=O)ccc31)[C@H](C(N)=O)[C@H]1C(=O)O[C@H](c3ccccc3)[C@H](c3ccccc3)N1[C@@H]2c1ccccc1OCCO , state whether its composite z-score is greater than or equal to 0.03.
y

* * *

compounds and their reported composite z-score
assay: small molecules captured by biotinylated probe aFGF2 – biochemical, small-molecule microarray, fluorescence 635/667, stem cell growth factor project, primary screen (AID 1067); settings: higher = more signal;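 further: measures binding of biotinylated aFGF2 protein to printed compounds on slides; z-score merges feature fluorescence and signal-to-noise across triplicate slides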

Use the examples below as a reference point.
[N-]=[N+]=Nc1ccccc1C[C@@]1(C(N)=O)N=C(c2ccc(OCCCO)cc2)O[C@@H]1c1ccccc1N=[N+]=[N-] ... -0.0751
CCOC(=O)C[C@H]1[C@H](OC(=O)c2ccc(C(=O)c3ccccc3)cc2)[C@@H](NC(=O)CC(C)C)c2cc(OCCCO)ccc2N1C(=O)c1ccccc1 ... -0.0266
CCCCC=C[C@@H](NC(=O)OCc1ccccc1Cl)c1ccccc1 ... 0.583
COCCCNC(=O)[C@@]1(Sc2ccc(C)cc2)CC(=O)N(C2Cc3ccccc3C2)[C@@H]1c1ccc(CO)cc1 ... -0.16

Give the measured composite z-score of [N-]=[N+]=Nc1ccccc1C[C@@]1(C(=O)N2CCOCC2)N=C(c2ccc(OCCCO)cc2)O[C@@H]1c1ccccc1 .
0.0324

Give the measured composite z-score of CCCCCC1=C2CNC(C)(C(=O)OC)C=C2C(C)C1=O (stereo not given) .
-0.0676

Give the measured composite z-score of CCCC=C(CCC)[C@@H](NC(=O)C(C)(C)C)c1ccc(C(=O)OC)cc1 .
0.202

* * *

target: Luciferin 4-monooxygenase (Photinus pyralis); assay: inhibition of purified Photinus pyralis luciferase – biochemical, luminescence, purified enzyme, 2006 set, primary screen (AID 1141); conditions: purified firefly luciferase, SteadyGlo luminescence, 30 min; higher = more signal, called active from +8 up or from −8 down;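 further: cell-free assay with purified firefly luciferase at 100 ng per well in PBS; test concentration not given here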
Observed Property: z-score
Reply briefly: the number, and no unit.

Use the examples below as a reference point.
COc1ccc([Si](C)(C)[C@@H]2[C@@H](CCO)O[C@]3(C(=O)N(Cc4ccccc4)c4ccc(N5CCOC5=O)cc43)[C@H]2C)cc1 ... 0.6
CCOC(=O)C1=C[C@@H](C(C)(C)C)N(S(=O)(=O)c2ccc(C)cc2)[C@H]1c1cccc2ccccc12 ... 0.908
COC(=O)c1c(CC[C@@H](CO)NC(=O)N[C@@H](C)Cn2cc(-c3ccccn3)nn2)oc(C(C)=O)c1C(=O)OC ... 0.641
CC1CC/C=C\[C@H]2OC34C=CCN(C(C)(C)C)C(=O)[C@H]3N(CCCCCO)C(=O)[C@@H]4C2C(=O)O1 (some centres not stated) ... 0.152
CCCNC(=O)[C@@H]1c2ccccc2C(=O)N(Cc2ccc(OC(F)(F)F)cc2)[C@H]1c1ccc(CO)cc1 ... 0.283
[N-]=[N+]=Nc1ccccc1[C@@H]1OC(c2ccc(OCCCO)cc2)=N[C@]1(Cc1ccccc1)C(=O)O ... -9.46
CCCN1C(=O)[C@@]2(Cc3ccccc31)N=C(c1ccc(OCCCO)cc1)O[C@H]2c1ccccc1 ... -3.25
CN(C)CCCCCCNC(=O)[C@@H]1C[C@@H]2C(=O)N3CCC[C@H]3C(=O)N2[C@@H]1c1cccc(OCCO)c1 ... -0.138
[N-]=[N+]=Nc1ccccc1C[C@]1(C(=O)N2CCOCC2)COC(c2ccc(OCCCO)cc2)=N1 ... -5.96
COC(=O)[C@@]1(Cc2ccc(OC)cc2)[C@H]2c3cc(C(=O)N4CCCC4)n(CCc4c[nH]c5ccc(O)cc45)c3C[C@H]2CN1C(=O)c1ccccc1 ... -1.31

Give the measured z-score of CC(C)C(CO)N1C(=O)[C@@H]2[C@H]3C(=O)OCC=C[C@H]3OC23C=CCN(c2ccc(Cl)cc2)C(=O)[C@@H]13 (some centres not stated) .
-0.469

Give the measured z-score of [N-]=[N+]=Nc1ccccc1C[C@]1(C(=O)NCC(O)CO)COC(c2ccc(OCCCO)cc2)=N1 (some centres not stated) .
-4.04

Measured values drawn from PubChem BioAssay for this set.
